molecular target: UniProtKB P21554; assay: Displacement of [3H]CP-55940 from human CB1 receptor expressed in CHO cells
Sequence (P21554 whole entry): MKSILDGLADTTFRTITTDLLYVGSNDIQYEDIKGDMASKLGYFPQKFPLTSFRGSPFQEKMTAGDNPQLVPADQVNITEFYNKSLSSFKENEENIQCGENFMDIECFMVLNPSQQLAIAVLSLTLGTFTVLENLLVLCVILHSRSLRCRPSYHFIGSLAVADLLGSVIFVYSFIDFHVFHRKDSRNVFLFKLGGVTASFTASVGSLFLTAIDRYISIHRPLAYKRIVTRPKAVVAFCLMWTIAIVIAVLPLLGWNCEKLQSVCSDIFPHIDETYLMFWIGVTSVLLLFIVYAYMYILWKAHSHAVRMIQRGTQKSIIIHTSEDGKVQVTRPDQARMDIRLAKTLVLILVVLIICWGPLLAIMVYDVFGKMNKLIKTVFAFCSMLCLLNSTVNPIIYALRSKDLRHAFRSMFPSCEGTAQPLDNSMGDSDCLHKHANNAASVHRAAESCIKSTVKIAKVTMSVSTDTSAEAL
measured.metric: pIC50
Give bare numbers, as −log10 of the molar value.

State recorded pIC50 for all listed compounds.
1. C[C@H](NC(=O)C(C)(C)Oc1ccc(C(F)(F)F)cn1)[C@@H](Cc1ccc(Cl)cc1)c1ccccc1
2. C[C@H](NC(=O)C(C)(C)Oc1cc(F)cc(F)c1)[C@@H](Cc1ccc(Cl)cc1)c1ccccc1

1: 9.27; 2: 8.83

###

Task for the reader: assign each of the following compounds its reported pKi.
target: Prothrombin (Homo sapiens, UniProt P00734)
Give bare numbers, as −log10 of the molar value.

N=C(N)c1ccc([C@H]2C3C(=O)N(Cc4ccccc4F)C(=O)C3C3CCCN32)cc1 (some centres not stated); 6.30

Report pKi for N=C(N)c1ccc([C@H]2C3C(=O)N(Cc4cccc(F)c4)C(=O)C3C3CCCN32)cc1 (some centres not stated) tested on Prothrombin (Homo sapiens, UniProt P00734).
6.44
